Biological target: E. coli-expressed recombinant human IL-13 (human, UniProt P35225 35-146)
Sequence (P35225 other isoform, or with tags, fused parts or gaps): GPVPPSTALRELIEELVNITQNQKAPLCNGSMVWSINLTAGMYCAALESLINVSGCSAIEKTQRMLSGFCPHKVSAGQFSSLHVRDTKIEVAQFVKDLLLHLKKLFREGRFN
Experiment: cell-based or functional assay
measure: Mean ND50 for 2 assays (µg/mL)
Numeric answer only, unit µg/mL assumed.

The measured Mean ND50 for 2 assays associated with chimaeric 6A1 (antibody, human IgG1, V domains shown, Parent murine 6A1 V regions on human IgG1/k wild type C regions, expressed in CHO cells; also called 6A1c; 6A1 chimaeric antibody) VH: EIQLQQSVAELVRPGASVRLSCTASGFYIKDTYMHWVIQRPEQGLEWIGTIDPANGNTKYVPKFQGKATITADTSSNTAYLRLSSLTSEDTAIYYCARSIYDDYHYDDYYAMDYWGQGTSVTVSS VL: DVLMTQTPLSLPVSLGDQASISCRSSQNIVHINGNTYLEWYLQKPGQSPKLLIYKISDRFSGVPDRFSGSGSGTDFTLKISRVEAEDLGVYYCFQGSHVPWTFGGGTKLEIK reads 0.119

The measured Mean ND50 for 2 assays associated with L2+A1 (antibody, human IgG1, kappa, V domains shown, Humanised 6A1, VH construct A1 and VL construct L2; also called A1L2) VH: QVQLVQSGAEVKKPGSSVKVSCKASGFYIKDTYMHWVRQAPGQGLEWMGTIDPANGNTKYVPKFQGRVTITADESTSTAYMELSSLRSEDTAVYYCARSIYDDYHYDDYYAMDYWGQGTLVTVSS VL: DIVMTQSPLSLPVTPGEPASISCRSSQNIVHINGNTYLEWYLQKPGQSPRLLIYKISDRFSGVPDRFSGSGSGTDFTLKISRVEADDVGVYYCFQGSHVPWTFGQGTKLEIKR reads 0.608

The measured Mean ND50 for 2 assays associated with monoclonal antibody 6A1 (antibody, IgG1, V domains shown, also called 6A1 parental mAb; parental mouse mAb 6A1) VH: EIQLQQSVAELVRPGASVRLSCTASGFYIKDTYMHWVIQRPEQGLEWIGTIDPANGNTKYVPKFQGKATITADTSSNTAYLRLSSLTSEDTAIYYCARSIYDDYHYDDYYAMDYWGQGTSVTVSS VL: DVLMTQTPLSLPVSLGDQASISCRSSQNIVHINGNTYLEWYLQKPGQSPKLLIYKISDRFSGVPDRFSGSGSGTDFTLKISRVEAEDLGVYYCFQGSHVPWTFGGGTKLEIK reads 0.193
